molecular target: Metallothiol transferase FosB (Staphylococcus aureus); assay: Parabolic competitive inhibition of Staphylococcus aureus FosB using L-cysteine as substrate assessed as inhibition constant for initial binding event by absorbance based DTNB assay
Sequence (Q5HDM4 whole entry): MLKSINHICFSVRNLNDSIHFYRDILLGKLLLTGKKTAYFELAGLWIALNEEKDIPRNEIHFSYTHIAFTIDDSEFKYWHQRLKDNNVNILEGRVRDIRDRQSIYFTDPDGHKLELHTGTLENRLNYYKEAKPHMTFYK
assay.readout: pKi
Notebook: values listed as pKi are -log10 of the concentration (mol/L).

Look up and report measured pKi (Metallothiol transferase FosB (Staphylococcus aureus)) for the following compound: O=C(O)CP(=O)(O)O 3.05
